Values compiled from paper PMC7283271.

molecular target: CxD7L1 (Culex quinquefasciatus); assay: ITC; type: binding; parameters: gene D7L1; mature protein, C-terminal 6x-His, HEK293
Sequence (A0A1S4K3K8 17-311 limits assumed): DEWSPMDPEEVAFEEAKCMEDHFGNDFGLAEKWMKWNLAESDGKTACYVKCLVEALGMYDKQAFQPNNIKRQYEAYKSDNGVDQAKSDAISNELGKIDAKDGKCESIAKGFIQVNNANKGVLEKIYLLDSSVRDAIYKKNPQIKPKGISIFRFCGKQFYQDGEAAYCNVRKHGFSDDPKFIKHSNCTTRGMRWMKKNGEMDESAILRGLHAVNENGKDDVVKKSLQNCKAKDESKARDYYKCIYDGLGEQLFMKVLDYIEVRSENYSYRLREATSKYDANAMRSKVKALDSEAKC
value_type: Kd (nM)
Give the value in nM but do not write nM after it.

According to the records, this compound Nc1ncnc2c1ncn2[C@@H]1O[C@H](CO)[C@@H](O)[C@H]1O [Adenosine] displays Kd of 313

----------
biological target: CxD7L1 (Culex quinquefasciatus); assay: crystal structure ([…] Å) and ITC; assay type: binding; design: gene D7L1; mature protein
Sequence (A0A1S4K3K8 17-311): as the sequence (A0A1S4K3K8 17-311 limits assumed) above
value_type: pKd
Hey, just a heads up that pKd is the negative log base 10 of the concentration in molar.

pKd for `Nc1ncnc2c1ncn2[C@@H]1O[C@H](COP(=O)(O)OP(=O)(O)O)[C@@H](O)[C@H]1O` is 7.49

----------
molecular target: CxD7L2 (Culex quinquefasciatus, UniProt B0X6Z1); construct: gene D7L2; full-length mature protein, C-terminal 6x-His, HEK293; assay: ITC; type: binding
Sequence (B0X6Z1 21-313 limits assumed): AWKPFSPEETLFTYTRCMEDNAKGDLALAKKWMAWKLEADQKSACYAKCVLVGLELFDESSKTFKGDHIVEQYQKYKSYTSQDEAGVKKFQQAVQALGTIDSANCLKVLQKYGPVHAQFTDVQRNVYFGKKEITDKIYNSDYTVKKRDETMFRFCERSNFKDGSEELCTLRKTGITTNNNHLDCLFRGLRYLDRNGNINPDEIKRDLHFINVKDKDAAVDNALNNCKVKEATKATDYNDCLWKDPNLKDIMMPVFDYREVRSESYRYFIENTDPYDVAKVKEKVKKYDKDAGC
value_type: pKd
Interpret pKd as the negative base-10 log of the concentration measured in mol/L.

The compound CNC[C@H](O)c1ccc(O)c(O)c1 [Epinephrine] showed pKd equal to 6.65
